system: ACHN; experiment: NCI tumour cell line growth inhibition, 48 h
The source made the active and inactive calls. Cut-off read from the data, not from the text of the source: active = GI50 up to about 1.1 µM and inactive = higher.
recorded_endpoint: GI50

CC1=C(C(=O)Nc2cccc(Cl)c2)C(c2ccccc2O)C(C(=O)Nc2cccc(Cl)c2)=C(C)N1    23.7 µM (inactive)

*Q* Respond only with GI50 recorded for `CC1=C(C(=O)NCc2ccccc2)C(c2ccc([N+](=O)[O-])cc2)C(C(=O)NCc2ccccc2)=C(C)N1`
*A* 27.4 µM (inactive)

*Q* Identify GI50 associated with the molecule `Cc1cc(OCc2nnc3sc(NC(=O)c4ccccc4)nn23)ccc1Cl`
*A* 20.5 µM (inactive)

----------
tested on: MDA-MB-231; experiment: NCI tumour cell line growth inhibition, 48 h
Active and inactive are the calls of the source. Cut-off read from the data, not from the text of the source: active = GI50 up to about 1.1 µM and inactive = higher.
recorded_endpoint: GI50

COc1ccc(C)cc1NC(=S)C#N    > 100 µM (inactive)
COc1ccc(-c2nc3cc(F)ccc3s2)cc1O    39.6 µM (inactive)
OCCSCCCSCCO    > 100 µM (inactive)
COC(=O)[C@H](CCSC)NC(=O)c1ccc(CNC(=O)/C=C/c2cccc(Oc3ccccc3)c2)cc1    21.3 µM (inactive)

*Q* Please report GI50 for the following compound: `CC(=O)C1(c2ccccc2)CCN(Cn2sc3nc(C)cc(C)c3c2=O)CC1`
*A* 33 µM (inactive)

*Q* Report GI50, nothing else, for this compound: `CC(=O)NC(c1nc2cc(C)c(C)cc2[nH]1)c1nc2cc(C)c(C)cc2[nH]1`
*A* 26.1 µM (inactive)

*Q* Give reported GI50 value for C=C1CC[C@@]2(OC1)OC1C[C@H]3[C@@H]4CC=C5C[C@@H](O)CC(OC6OCC(OC(=O)[C@@H](O)[C@@H](C)CC)C(OC(C)=O)C6OC6OC(C)C(O)C(O)C6O)[C@]5(C)[C@H]4CC[C@]3(C)C1[C@@H]2C (stereo not given in full)
*A* 1.75 µM (inactive)

*Q* Identify GI50 associated with the compound `CCn1c(=O)c2c3ccc(OC(C)=O)cc3[nH]c2c2ccc(OC(C)=O)cc21`
*A* 33.1 µM (inactive)

*Q* Give the value of GI50 reported for the following: `Cc1ccc2c(O)cc(-c3ccc(C)s3)nc2n1`
*A* 1.73 µM (inactive)

*Q* Return the recorded GI50 value; entry: `C/C(=N\Nc1ccc([N+](=O)[O-])cc1[N+](=O)[O-])c1ccc2ccccc2n1`
*A* 49.3 µM (inactive)

----------
system: NCI-H460; experiment: NCI tumour cell line growth inhibition, 48 h
Activity calls are given as the source filed them. No stated cut-off is given here; in the data, active = GI50 up to about 1.1 µM and inactive = higher.
Give your call using only these classes: active, inactive

Previously resolved entries follow.
O=C(O)c1nc2cc(C(F)(F)F)ccc2[nH]c1=O    inactive
COCCOC(=O)c1c(C)[n+]([O-])c2cc(Cl)c(Cl)cc2[n+]1[O-]    inactive
Cc1ccc2nc(CC(=O)c3ccc4ccccc4c3)c(O)nc2c1    inactive

*Q* Dear all, I need the recorded test outcome for `Cc1c2cc[n+](CCN3CCCCC3)cc2c(C)c2c1[nH]c1ccc(O)cc12` , thank you.
*A* active

*Q* How was `C/C(=N\NC(=S)NC(C)(C)C)c1nc2cccnc2[nH]1` classified in this test?
*A* inactive

*Q* Hi team, can someone confirm the assay call for `Cc1ccc(C)n1-n1c(-c2ccccc2)n[nH]c1=O` ?
*A* inactive

*Q* Outcome logged for COC(=O)/C(=N\Nc1nnc(C)n1N)C(C#N)c1ccc(Cl)cc1 (stereo unspecified) in this assay:
*A* inactive

*Q* Assay outcome for `CN(C(=O)c1ccncc1)c1ccccc1` : what was it?
*A* inactive

*Q* Dear colleague, could you share the recorded outcome for N#CC(C(=O)C(N)=O)c1ccccc1Cl (stereo unspecified) when you have a moment?
*A* inactive

*Q* # outcome recorded in this test, key = `O=C(O)c1ccc(Nc2cnc3ccc(C(F)(F)F)cc3n2)cc1`
*A* inactive

*Q* Would you mind telling me which call this test gave `COC(=O)[C@H](CCSC)NC(=O)c1ccc(CNC(=O)/C=C/c2cccc(Oc3ccccc3)c2)cc1` ?
*A* inactive
